Hello, the source for this data is ChEMBL document CHEMBL1143280, in case you need it.

# experiment-summary: Oral bioavailability in Sprague-Dawley rat at 3 mg/kg
# Assay type: ADME, organism-based
# setup-conditions: in vivo
measure: bioavailability (%)
Kindly answer with a numeric value in %, unit omitted.

Enquiry: Query: bioavailability; subject: CCc1cc(Nc2nccc(-c3c(-c4ccc(OC)c(C(=O)Nc5c(F)cccc5F)c4)nc4ccccn34)n2)c(OC)cc1N1CCC(N2CCN(S(C)(=O)=O)CC2)CC1
Return: 63

====

# System: Mus musculus
# experiment-summary: Dose normalized AUC (0 to 6 hrs) in po dosed mouse
# Format: ADME, organism-based
# Design: time < 6 hr, route oral
# setup-conditions: in vivo
Recorded AUC by entry
Kindly answer with a numeric value in ng·h/mL, unit omitted.

{"columns": ["mol", "target-system", "unit-tag", "endpoint-result"],
 "data": [
  ["COc1cc(N2CCC(N3CCN(C(C)=O)CC3)CC2)ccc1Nc1nccc(-c2c(-c3cccc(C(=O)Nc4c(F)cccc4F)c3)nc3ccccn23)n1", "Mus musculus", "ng·h/mL", 216],
  ["COc1cc(N2CCC(N3C[C@@H](C)O[C@@H](C)C3)CC2)ccc1Nc1nccc(-c2c(-c3cccc(C(=O)Nc4c(F)cccc4F)c3)nc3ccccn23)n1", "Mus musculus", "ng·h/mL", 549],
  ["COc1cc(N2CCC(N3CCCC3)CC2)ccc1Nc1nccc(-c2c(-c3cccc(C(=O)Nc4c(F)cccc4F)c3)nc3ccccn23)n1", "Mus musculus", "ng·h/mL", 121]
]}

Enquiry: Query AUC on Mus musculus for COc1cc(N2CCC(N3CCOCC3)CC2)ccc1Nc1nccc(-c2c(-c3cccc(C(=O)Nc4c(F)cccc4F)c3)nc3ccccn23)n1
Return: 276
